- Test system: Neu5Ac(a2-8)Neu5Ac(a2-3)[GalNAc(b1-4)]Gal(b1-4)Glc
- Protocol text: glycan array binding signal (z-score within array); higher = stronger binding
- Measurement conditions: glycan notation: IUPAC condensed, linker removed
About 410 targets per protein were measured; listed, in parts, are those with the strongest signals and a random draw of the rest.
Record true whenever glycan array binding signal (z-score) is at -0.2 or higher; record false when lower.

Hello, I need to know if NKp30 (Homo sapiens), O14931 (protein) LWVSQPPEIRTLEGSSAFLPCSFNASQGRLAIGSVTWFRDEVVPGKEVRNGTPEFRGRLAPLASSRFLHDHQAELHIRDVRGHDASIYVCRVEVLGLGVGTGNGTRLVVEKEHPQLG has measured glycan array binding signal (z-score) not below -0.2. Thanks!
true

What do we get for MGL6A (Homo sapiens) (protein) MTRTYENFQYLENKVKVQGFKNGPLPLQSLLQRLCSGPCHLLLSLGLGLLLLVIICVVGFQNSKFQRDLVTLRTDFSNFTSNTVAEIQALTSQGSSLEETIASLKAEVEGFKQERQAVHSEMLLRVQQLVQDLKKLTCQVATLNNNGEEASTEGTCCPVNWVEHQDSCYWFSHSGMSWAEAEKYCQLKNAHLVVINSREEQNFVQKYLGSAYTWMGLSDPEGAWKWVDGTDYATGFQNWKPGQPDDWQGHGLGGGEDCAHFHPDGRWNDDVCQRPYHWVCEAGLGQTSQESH ?
true

What do we get for SP16665A-bot-344-23-344 (Bacteroides ovatus) (protein) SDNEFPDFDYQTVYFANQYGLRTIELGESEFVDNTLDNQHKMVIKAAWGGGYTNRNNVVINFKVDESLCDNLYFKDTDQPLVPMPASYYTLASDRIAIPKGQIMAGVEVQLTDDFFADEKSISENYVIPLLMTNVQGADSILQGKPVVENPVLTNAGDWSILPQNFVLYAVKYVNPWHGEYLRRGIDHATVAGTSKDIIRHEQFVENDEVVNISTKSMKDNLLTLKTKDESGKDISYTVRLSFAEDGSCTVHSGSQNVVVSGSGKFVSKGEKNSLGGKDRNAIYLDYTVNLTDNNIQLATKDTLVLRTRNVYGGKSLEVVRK ?
false

What do we get for Surfactant Protein D (Human); Neck + Carbohydrate Recognition Domain (NCRD) (Homo sapiens) (protein) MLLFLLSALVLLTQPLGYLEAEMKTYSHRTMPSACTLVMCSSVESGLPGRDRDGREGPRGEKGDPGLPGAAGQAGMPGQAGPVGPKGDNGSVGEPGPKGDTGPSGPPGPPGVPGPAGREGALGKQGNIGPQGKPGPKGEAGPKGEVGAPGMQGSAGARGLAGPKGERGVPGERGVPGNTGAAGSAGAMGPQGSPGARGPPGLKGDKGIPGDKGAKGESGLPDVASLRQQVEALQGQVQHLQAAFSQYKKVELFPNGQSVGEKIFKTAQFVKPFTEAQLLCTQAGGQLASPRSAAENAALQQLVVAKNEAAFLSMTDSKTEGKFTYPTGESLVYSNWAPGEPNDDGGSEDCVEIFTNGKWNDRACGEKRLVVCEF ?
false

What do we get for Flo5 (Saccharomyces cerevisiae), P38894 (protein) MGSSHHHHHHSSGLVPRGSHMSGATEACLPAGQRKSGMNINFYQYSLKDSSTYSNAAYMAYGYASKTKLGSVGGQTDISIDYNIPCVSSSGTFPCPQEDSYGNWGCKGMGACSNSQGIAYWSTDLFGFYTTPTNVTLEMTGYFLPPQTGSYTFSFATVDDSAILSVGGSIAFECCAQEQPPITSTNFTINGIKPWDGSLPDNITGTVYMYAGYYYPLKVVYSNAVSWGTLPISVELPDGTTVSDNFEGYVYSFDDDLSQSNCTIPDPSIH ?
true

What do we get for CGL3 (Coprinopsis cinerea) (protein) MGHHHHHHHHSGFHILRLESTVDLSEPLKDNGIIVFQSDKLDLEPSPNLGPTGIDNTNVNLINAKGDVLLHIGIRRRENAFVFNSIPYGESRGPEERIPLEGTFGDRRDPSITVFDHPDRYQIMIDYKTVYYYKKRLEGRCEKVSYKINEGQTPPFSDVLGVTVLYFANVMPRAN ?
true

What do we get for Dectin2 (Homo sapiens), Q6EIG7 (protein) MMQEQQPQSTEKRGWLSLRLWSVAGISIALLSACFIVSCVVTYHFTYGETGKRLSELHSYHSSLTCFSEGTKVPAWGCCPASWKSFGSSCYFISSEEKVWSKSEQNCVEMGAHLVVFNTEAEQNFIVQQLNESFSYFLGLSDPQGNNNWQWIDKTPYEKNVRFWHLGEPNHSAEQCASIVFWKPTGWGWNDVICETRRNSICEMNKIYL ?
true

What do we get for UEA-I (Ulex europaeus), P22972 (protein) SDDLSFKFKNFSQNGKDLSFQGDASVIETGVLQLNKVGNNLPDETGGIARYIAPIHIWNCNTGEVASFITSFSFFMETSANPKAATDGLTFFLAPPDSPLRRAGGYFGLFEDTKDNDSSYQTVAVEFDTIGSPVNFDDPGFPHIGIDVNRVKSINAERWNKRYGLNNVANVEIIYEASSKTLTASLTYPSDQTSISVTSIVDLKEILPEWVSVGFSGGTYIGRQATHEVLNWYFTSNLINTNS ?
false

What do we get for FBG4 (Homo sapiens), Q96EF6 (protein) MGARLSRRRLPADPSLALDALPPELLVQVLSHVPPRSLVTRCRPVCRAWRDIVDGPTVWLLQLARDRSAEGRALYAVAQRCLPSNEDKEEFPLCALARYCLRAPFGRNLIFNSCGEQGFRGWEVEHGGNGWAIEKNLTPVPGAPSQTCFVTSFEWCSKRQLVDLVMEGVWQELLDSAQIEICVADWWGARENCGCVYQLRVRLLDVYEKEVVKFSASPDPVLQWTERGCRQVSHVFTNFGKGIRYVSFEQYGRDVSSWVGHYGALVTHSSVRVRIRLS ?
false

These data points were gathered from the supplement of paper PMC8728848.
